Provenance of the data: PubChem BioAssay (NCI)

Test system: HCC-2998 colon
Method: NCI-60 one-dose screen, 48 h (100 = growth as untreated, 0 = no growth, -100 = all killed)
Assay Conditions: 10 µM unless noted
This is part of a sample that, as a whole, favours compounds with a hit. Of some 83,000 tested, about 20% had one in any assay.
Assignment: determine reported growth for the given molecules.
Numbers only, in %.

Solved cases (10 shown):
CC(C)(C)N(Cc1ccccc1)N=O = 110
CCC(C)(C)O = 112
CC[C@H](C)[C@H](NC(=O)Nc1ccccc1)C(=O)N(C)[C@H](C[C@@H](OC(C)=O)c1nc(C(=O)N[C@@H](Cc2ccccc2)C[C@H](C)C(=O)OC)cs1)C(C)C = 18.7
C[CH2][Pb]([CH2]C)([CH2]C)[O]C(=O)c1ccc(N)cc1 = 67.5
C/C(=N/OC(=O)N(C)C)c1cc(Cl)ccc1Cl = 102
NS(=O)(=O)c1nc[nH]c1[N+](=O)[O-] = 100
CNC(=O)Oc1cc(C(C)C)ccc1Sc1ccc(C(C)C)cc1OC(=O)NC = 104
Nc1cccc2c1Oc1ccccc1O2 = 109
CC[CH2][Pb]([CH2]CC)([CH2]CC)[O]C(=O)C(F)(F)F = -84.4
O=[N+]([O-])c1ccc(/C=C/C=C/c2ccc(S(=O)(=O)F)cc2)c(Cl)c1 = 106

Give one value of growth per listed molecule.
1. O=C(O)c1[nH]c(=O)[nH]c(=O)c1F
2. CC(C)(NC(=O)c1nn(CCCCCF)c2ccccc12)c1ccccc1
3. CCC(/C=C(C)/C=C/C(=O)c1c(O)c(-c2ccc(O)cc2)c[nH]c1=O)CO (stereo not drawn)

Result ::
64.9
105
106

Look up growth for the entries below, preserving their order.
1. O=C(O)C1[O][Sb][O]C1C(=O)O (stereo not drawn)
2. C/C(=N/OC(=O)N(C)C)c1ccc(Cl)cc1Cl
3. C[C@@H]1CC[C@@H]2[C@@H]1[C@H](OC(=O)/C=C/C1CCCCC1)[C@]1(C3CCCCC3)C[C@@H](OC(=O)CO)[C@@]2(C)O1
4. C/C1=C/C(=O)O[C@@H]2C[C@@H](CC[C@H](C)/C=C\C=C\CC1)O[C@@](OCCc1ccccc1)([C@@H]1CSC(=O)N1)C2

Result ::
1: 106; 2: 102; 3: 49.5; 4: 55.9

For each of the molecules below, state growth.
1. CC1(CF)NC(=O)NC1=O (stereo not drawn)
2. C[C@]12CC[C@H](OC3OC(O)C(O)C(O)C3O)C=C1CCC1C2CC[C@]2(C)[C@@H](c3ccc(=O)oc3)CC[C@]12O (stereo partly drawn)
3. O=C(c1cccs1)C1NO[N+]([O-])=C1c1cccs1 (stereo not drawn)
4. Clc1ccc(SSC(Cl)(Cl)Cl)cc1
5. COc1ccc(CN2CCN(Cc3ccccc3)CC2)c(O)c1
6. CCCCn1cc(C(=O)/C(C#N)=C/c2cc3ccccc3nc2Cl)c2cc(OC)ccc21

Result ::
1. 102
2. -90.4
3. 96.5
4. 110
5. 89.4
6. 96.8

Hi! Can you tell me growth for each of these molecules?
1. CN1CCN(C(=O)COc2ccc(/C=C3\CC4C5CC=C6CC(Cl)CCC6(C)C5CCC4(C)C3=O)cc2)CC1 (stereo not drawn)
2. CCC[CH2][Sn]1([CH2]CCC)[O]C(=O)c2cccc([N+](=O)[O-])c2C(=O)[O]1
3. O=C(CCc1ccco1)NC1CCN(CC2(c3ccc(Cl)cc3)CCC2)CC1
4. CC1(C)N=C(N)N=C(N)N1c1ccc(OCCCCNC(=O)c2ccc(S(=O)(=O)F)cc2)c(Cl)c1
5. O=C(N/N=C/c1ccc(N(CCCl)CCCl)cc1)c1cc(=O)[nH]c(=O)[nH]1
6. CC1(C)N=C(N)N=C(N)N1c1ccc(OCCCCNC(=O)Nc2cccc(S(=O)(=O)F)c2)c(Cl)c1

Result ::
1. 90.6
2. -84.7
3. 11.4
4. 83.1
5. 104
6. 50.8

Can you give me growth for all of these, one by one?
1. COc1ccc(C(c2ccc(OC)cc2)C(Cl)(Cl)Cl)cc1
2. CN1CC2CCC(C1)C2=O
3. Nc1cccc(CC(=O)Nc2ccc(S(=O)(=O)F)cc2)c1
4. COC(=O)C(=[N+]=[N-])C(=O)OC
5. n1nc(-c2nonc2-c2nn[nH]n2)n[nH]1
6. CC(=O)O[C@H]1CCC2(C)C(=CCC3C2CCC2(C)/C(=N/OC(=O)c4ccc(N(CCCl)CCCl)cc4)CCC32)C1 (stereo partly drawn)
7. CC(C)N=C(NC(C)C)N1CC1
8. C=CCC1(CC)C(=O)NC(=S)NC1=O

Result ::
94.4
114
43.9
108
106
80.3
103
96.5

Report growth for each item below.
1. O=C(CI)Nc1ccc(Br)cc1
2. C/C(=C\c1cc(C(F)(F)F)n(-c2ccc(N)cc2)n1)[C@@H]1C[C@@H]2O[C@]2(C)CCC[C@H](C)[C@H](O)[C@@H](C)C(=O)C(C)(C)[C@@H](O)CC(=O)O1
3. [Br][Pb]([c]1ccccc1)([c]1ccccc1)[c]1ccccc1
4. CC(=O)Nc1ccc(Cc2ccc(NC(C)=O)cc2)cc1
5. OC1(c2ccc(Cl)cc2Cl)c2ccccc2C2=NCCN21 (stereo not drawn)

Result ::
1. 102
2. 8.18
3. -94.6
4. 116
5. 75.3

Query :: Please tell me: growth of CSc1ccccc1NP1(=O)OCC(C)([N+](=O)[O-])CO1 (stereo not drawn) , system HCC-2998 colon?
Result :: 104

----------
System: SNB-75 CNS
Method: NCI-60 one-dose screen, 48 h
Assay Conditions: 10 µM unless noted
About 83,000 compounds went through this panel and 20% of them were active in at least one assay; those are over-represented in the sample as a whole. Active and inactive are the calls of the source. How the source made its calls: active means growth percent below 10; inactive means the rest.
One label from this list, please: active, inactive

Query :: Entry COc1cc(NCCCCCN=C(N)N)c2ncccc2c1 : call = ?
Result :: inactive

----------
Tested on: UO-31 renal
Method: NCI-60 one-dose screen, 48 h (100 = growth as untreated, 0 = no growth, -100 = all killed)
Assay Conditions: 10 µM unless noted
The panel holds about 83,000 compounds, 20% with a hit somewhere; the sample as a whole holds those more often.
Kindly supply the reported growth values for the records listed here.
Answers are plain numbers, in %.

CC12CCC(=O)C=C1C(O)CC1C2CCC2(C)C(O)CCC12 (stereo unspecified) = 87.1
CCOc1c(Cl)cc(CNC(C)C(O)c2ccccc2)cc1OC (stereo unspecified) = 92.6
NC(=O)C(Cl)Cl = 94.6

Go through the list and state growth for each entry.
1. CC(CC(C#N)(c1ccccc1)c1ccccc1)N1CCOCC1 (stereo unspecified)
2. N#CC1c2ccccc2C=CN1C(=O)c1ccc(N(CCCl)CCCl)cc1 (stereo unspecified)
3. C[CH2][Pb]([CH2]C)([CH2]C)[O]C(=O)COC

Result ::
[74.6, 71, -9.22]

----------
Please go through the items and note down their growth.
System: HL-60(TB) leukemia
Method: NCI-60 one-dose screen, 48 h (100 = growth as untreated, 0 = no growth, -100 = all killed)
Assay Conditions: 10 µM unless noted
The panel holds about 83,000 compounds, 20% with a hit somewhere; the sample as a whole holds those more often.
Give bare numbers, in %.

O=C(CC1(O)C(=O)Nc2c(Cl)ccc(Cl)c21)c1ccc(Cl)cc1Cl (stereo not given) = 80.8
CCCCCCCCCCCC[N+](C)(C)Cc1ccccc1 = -52.6
CC1([N+](=O)[O-])COP(=O)(Nc2ccc(F)cc2)OC1 (stereo not given) = 90.4
O=c1c2c3c(sc2n2c(-c4cn(-c5ccccc5)nc4-c4ccc(Cl)cc4)nnc2n1Cc1ccccc1)CCCC3 = 102
CCOC(=O)c1cnc2c(C)cccc2c1Nc1ccc(C(C)=O)cc1 = -43.5

Please give growth for each item listed below.
1. CCn1cc(-c2ccnc(NCCNS(=O)(=O)c3cccc4ccccc34)c2)c(-c2cccc(O)c2)n1
2. O=C(N/N=C/c1ccc(O)cc1O)c1cccnc1
3. Cc1ccc(NC(=S)/N=c2/n(-c3ccccc3)nc3n2CCN3C2=NCCN2)cc1
4. COc1ccc(N=C(c2ccccc2)C2C(=O)c3ccccc3C2=O)cc1

Result ::
1. 103
2. -17.2
3. 156
4. 61.3

Query :: Test system HL-60(TB) leukemia; read-out growth; what value for Cc1cc(C#Cc2ccc(C(C)(C)C)cc2)ccc1-n1c(/C=C/c2c(Cl)cccc2Cl)nc2ccccc2c1=O ?
Result :: 99.6

----------
Tested on: HL-60(TB) leukemia
Method: NCI-60 one-dose screen, 48 h (100 = growth as untreated, 0 = no growth, -100 = all killed)
Assay Conditions: 10 µM unless noted
About 83,000 compounds went through this panel and 20% of them were active in at least one assay; those are over-represented in the sample as a whole.
Kindly supply the reported growth values for the records listed here.
Numbers only, in %.

Observe how each entry below is paired with its result.
CCc1nc2cc(/C=C/C(=O)NO)ccc2c(=O)n1CCc1ccc(OC)cc1 = 0.921
CC(=O)C1N=NCC1c1ccccc1 (centres undefined) = 96.8
Fc1cc(-c2nnc3sc(-c4ccc(Cl)cc4)nn23)c(Cl)cc1Cl = 26.9
CCN(CC)Cc1cc(Nc2c3ccccc3nc3cc(Cl)ccc23)ccc1O = -37.5
COc1ccc(C#Cc2ccc(=O)oc2-c2cc(OC)c(OC)c(OC)c2)cc1O = 23.5
CC(C(=O)n1cc(-c2ccccc2)c(-c2ccccc2)c1)c1ccccc1 (centres undefined) = 106
Cc1ccc2nc3c(nc2c1)-c1cccc2cccc-3c12 = 93.5
CCCCn1c(Cc2ccc(Cl)cc2)nc2cc(OC)c(OC)cc2c1=O = 53.7

Hey, can you go through the list below and give me growth for every item?
1. CCN(CC)c1ccc(/C=N\NC(=O)/C=C/C=C/c2ccc3c(c2)OCO3)c(O)c1
2. O=[N+]([O-])c1cccc(-c2cc(-c3cc(Br)ccc3O)[nH]n2)c1
3. Nc1ncc(-c2ccc3ncnc(Nc4cccc(Cl)c4)c3c2)cn1
4. C=CC(C)C(C)(C)O (centres undefined)

Result ::
2.66
-17.1
58.1
97.7

Return reported growth values for all items listed beneath this line.
1. CC(C)(C)c1nc(-c2ccc(O)c(O)c2)cs1
2. Cl.Fc1c[c-]c(-c2ccccn2)c(F)c1.[Pt].c1ccc([PH+](C[PH+](c2ccccc2)c2ccccc2)c2ccccc2)cc1
3. C[C@]12C[C@H](O)[C@H]3[C@@H](CCC4=CC(=O)CC[C@@]43C)[C@@H]1CC[C@@H]2O
4. O=C(CCC(=O)OC1CCCC1)OC1CCCC1

Result ::
-5.29
-33.7
105
103

Value sought for every listed compound: growth.
1. CCCCC[C@@H]1Cc2cc(O)c(C(=O)O)c3c2[C@H](C[C@@]2(CCCO2)O3)O1
2. CN(C)/N=C/c1ccccc1O
3. COc1ccc(C2=Nn3c(nnc3-c3cc(Cl)cc(Cl)c3Cl)SC2)cc1

Result ::
1: 86.5; 2: 97.1; 3: -32
